For each entry below, report its pKd value.
- measured target: T1, cohesin-human CD40 ectodomain protein (P3398) (human)
- T1 construct: SPR analyte; also called soluble human CD40 ectodomain; liquid phase soluble human CD40 ectodomain; not shown: cohesin domain of P3398 and its junction to CD40
- T1 sequence (chain, as listed by the source limits assumed): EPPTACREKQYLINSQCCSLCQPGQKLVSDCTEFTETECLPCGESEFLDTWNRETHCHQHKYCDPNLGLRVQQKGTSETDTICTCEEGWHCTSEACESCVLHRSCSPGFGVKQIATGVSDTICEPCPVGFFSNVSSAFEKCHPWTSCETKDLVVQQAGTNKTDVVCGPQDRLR
- assay summary: SPR (SensiQ Pioneer), hIgG4 mAb captured on Protein A/G, cohesin-human CD40 ectodomain in solution
Give bare numbers, as −log10 of the molar value.

Past entries and their recorded results:
>  <binder>
anti-CD40 24A3 human IgG4 antibody (antibody, V domains shown, also called mAb4 [24A3]) VH: DVQLQESGPDLVKPSQSLSLTCTVTGYSITSDYSWHWIRQFPGNKLEWMGYIYYSGSTNYNPSLKSRISITRDTSKNQFFLQLNSVTTEDSATYFCARFYYGYSFFDYWGQGTTLTVSS VL: QIVLTQSPAFMSASPGEKVTMTCSASSSVSYMHWYQQKSGTSPKRWIYDTSKLASGVPARFSGSGSGTSYSLTISSMEAEDAATYYCQQWSSNPLTFGAGTK

>  <pKd>
7.01

$$$$
>  <binder>
anti-CD40 12E12 human IgG4 antibody (antibody, V domains shown, also called mAb6 [12E12]; anti-CD40 12E12 IgG4) VH: EVQLVESGGGLVQPGGSLKLSCATSGFTFSDYYMYWVRQAPGKGLEWVAYINSGGGSTYYPDTVKGRFTISRDNAKNTLYLQMNSLRAEDTAVYYCARRGLPFHAMDYWGQGTLVTVSS VL: DIQMTQSPSSLSASVGDRVTITCSASQGISNYLNWYQQKPGKAVKLLIYYTSILHSGVPSRFSGSGSGTDYTLTISSLQPEDFATYYCQQFNKLPPTFGGGTK

>  <pKd>
7.48

$$$$
>  <binder>
anti-CD40 12B4 human IgG4 antibody (antibody, V domains shown, also called mAb3 [12B4]) VH: EVQLQQSGPELVKPGASVKMSCKASGYTFTDYVLHWVKQKPGQGLEWIGYINPYNDGTKYNEKFKGKATLTSDKSSSTAYMELSSLTSEDSAVYYCARGYPAYSGYAMDYWGQGTSVTVSS VL: DIQMTQTTSSLSASLGDRVTISCRASQDISNYLNWYQQKPDGTVKLLIYYTSRLHSGVPSRFSGSGSGTDYSLTISNLEQEDIATYFCHHGNTLPWTFGGGTK

>  <pKd>
7.00

$$$$

Moving on to the next binder.
Look up pKd: anti-CD40 11B6 human IgG4 antibody (antibody, V domains shown, also called mAb1 [11B6 VH/VkV2]; PAB3405) VH: EVQLVQSGAEVKKPGASVKISCKASGYSFTGYYMHWVKQAHGQGLEWIGRINPYNGATSYNQNFKDRATLTVDKSTSTAYMELSSLRSEDTAVYYCAREDYVYWGQGTTVTVSS VL: DVVMTQSPLSLPVTLGQPASISCRSSQSLVHSNGNTYLHWYQQRPGQSPRLLIYKVSNRFSGVPDRFSGSGSGTDFTLKISRVEAEDVGVYFCSQSTHVPWTFGGGTKLEIKR
6.66
